molecular target: PDE10A (Homo sapiens (Human), UniProt Q9Y233); settings: read-out: Inhibition of PDE10A, IC50
Sequence (Q9Y233 other isoform, or with tags, fused parts or gaps): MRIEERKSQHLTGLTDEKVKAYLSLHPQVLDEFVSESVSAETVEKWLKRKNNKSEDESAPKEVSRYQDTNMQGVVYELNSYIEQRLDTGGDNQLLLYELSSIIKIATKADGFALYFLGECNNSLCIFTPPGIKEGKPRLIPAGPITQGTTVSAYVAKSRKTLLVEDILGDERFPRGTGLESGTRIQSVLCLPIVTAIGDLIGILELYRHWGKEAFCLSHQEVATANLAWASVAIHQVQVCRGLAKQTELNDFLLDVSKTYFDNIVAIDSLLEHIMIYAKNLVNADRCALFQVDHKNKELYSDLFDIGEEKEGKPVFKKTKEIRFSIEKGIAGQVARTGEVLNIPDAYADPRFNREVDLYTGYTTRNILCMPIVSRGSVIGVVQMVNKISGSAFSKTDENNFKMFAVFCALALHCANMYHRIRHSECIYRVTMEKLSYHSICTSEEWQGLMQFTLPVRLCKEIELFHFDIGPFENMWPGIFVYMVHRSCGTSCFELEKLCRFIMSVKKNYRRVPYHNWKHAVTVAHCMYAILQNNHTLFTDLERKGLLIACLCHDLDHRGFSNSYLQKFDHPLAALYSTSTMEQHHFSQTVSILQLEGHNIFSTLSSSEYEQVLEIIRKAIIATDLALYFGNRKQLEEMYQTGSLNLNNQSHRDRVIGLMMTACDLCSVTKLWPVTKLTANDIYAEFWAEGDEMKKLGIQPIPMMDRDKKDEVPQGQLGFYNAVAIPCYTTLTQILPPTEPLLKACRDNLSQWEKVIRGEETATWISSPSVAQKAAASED
Assay metric: IC50 (nM)
Number in nM, nothing else.

Worked cases, answers included:
> print(dat)
                                   compound  assay.metric  reported
1  COc1ccc(Cl)c(-c2nnc3c(C)nc4ccc(Cl)cc4n23)c1 [Example 7]          IC50       104
2  Cc1nc2ccccc2n2c(-c3cc(Cl)ccc3Cl)nnc12 [Example 34]          IC50       330

Exercise: Form field: reported IC50 of Cc1nc2ccc(Cl)cc2n2c(-c3ccccc3F)nnc12 [Example 2]
Solution: 214

The values you see were collected from patent US9540379B2.
